Each entry below carries its reported pKi.
Biological target: UniProt:P41144
Sequence (P41144 whole entry): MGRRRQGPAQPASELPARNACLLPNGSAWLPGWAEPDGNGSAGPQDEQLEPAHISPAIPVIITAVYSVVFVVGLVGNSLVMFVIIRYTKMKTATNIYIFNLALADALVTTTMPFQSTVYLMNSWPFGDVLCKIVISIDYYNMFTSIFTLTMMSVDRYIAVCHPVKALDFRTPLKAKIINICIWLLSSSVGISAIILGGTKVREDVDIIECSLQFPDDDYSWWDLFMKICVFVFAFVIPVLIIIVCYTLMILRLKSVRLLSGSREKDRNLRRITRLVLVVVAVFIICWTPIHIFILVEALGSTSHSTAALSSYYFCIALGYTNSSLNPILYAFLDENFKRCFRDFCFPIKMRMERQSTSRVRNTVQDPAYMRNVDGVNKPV
Assay: Compound was tested for the inhibition of [3H]- (U69,593) binding to opioid receptor kappa in guinea pig brain homogenates
Type: tissue-based
pKi: −log10 of the molar value. Positions of bridges follow the written chain, without caps; N, C: chain ends. Non-standard residues stand in square brackets, D forms with d. Residues, ends and D or L forms follow the SMILES beside them. Phe(4-Cl) = N[C@@H](Cc1ccc(Cl)cc1)C(=O)O; Phe(4-Me) = Cc1ccc(C[C@H](N)C(=O)O)cc1; Phe(2-F) = N[C@@H](Cc1ccccc1F)C(=O)O; Pen = CC(C)(S)[C@H](N)C(=O)O

Recorded pKi, per entry:
**Query** Item under review: CC1(C)SSC[C@H](NC(=O)[C@@H](N)Cc2ccc(O)cc2)C(=O)N[C@@H](Cc2ccccc2F)C(=O)N[C@@H]1C(=O)O (H-YC[Phe(2-F)][Pen]-OH; disulfide 2-4) . Reported pKi?
**Result** < 5.00

**Query** Item under review: Cc1ccc(C[C@@H]2NC(=O)[C@@H](NC(=O)[C@@H](N)Cc3ccc(O)cc3)CSSC(C)(C)[C@@H](C(=O)O)NC2=O)cc1 (H-YC[Phe(4-Me)][Pen]-OH; disulfide 2-4) . Reported pKi?
**Result** < 5.00

Continuing:
**Query** Item under review: CC1(C)SSC[C@H](NC(=O)[C@@H](N)Cc2ccc(O)cc2)C(=O)N[C@@H](Cc2ccc(Cl)cc2)C(=O)N[C@@H]1C(=O)O (H-YC[Phe(4-Cl)][Pen]-OH; disulfide 2-4) . Reported pKi?
**Result** 5.00

---

Molecular target: Mu-type opioid receptor (Cavia porcellus)
Sequence (P97266 whole entry): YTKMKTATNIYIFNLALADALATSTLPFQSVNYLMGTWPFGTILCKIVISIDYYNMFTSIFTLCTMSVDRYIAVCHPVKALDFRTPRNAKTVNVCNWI
Assay: Ratio of binding affinity towards opioid receptor mu to opioid receptor delta
Positions of bridges follow the written chain, without caps; N, C: chain ends. Non-standard residues stand in square brackets, D forms with d. Residues, ends and D or L forms follow the SMILES beside them. Phe(4-tBu) = CC(C)(C)c1ccc(C[C@H](N)C(=O)O)cc1; Phe(4-Cl) = N[C@@H](Cc1ccc(Cl)cc1)C(=O)O; Phe(3-F) = N[C@@H](Cc1cccc(F)c1)C(=O)O; Phe(4-Me) = Cc1ccc(C[C@H](N)C(=O)O)cc1; Phe(2-F) = N[C@@H](Cc1ccccc1F)C(=O)O; mTyr = N[C@@H](Cc1cccc(O)c1)C(=O)O; Pen = CC(C)(S)[C@H](N)C(=O)O
Rule: Yes for Ratio not less than 300, No for anything less.

**Query** Entry CC(C)(C)c1ccc(C[C@@H]2NC(=O)[C@@H](NC(=O)[C@@H](N)Cc3ccc(O)cc3)CSSC(C)(C)[C@@H](C(=O)O)NC2=O)cc1 (H-YC[Phe(4-tBu)][Pen]-OH; disulfide 2-4) : is its Ratio no less than 300?
**Result** No

**Query** Entry Cc1ccc(C[C@@H]2NC(=O)[C@@H](NC(=O)[C@@H](N)Cc3ccc(O)cc3)CSSC(C)(C)[C@@H](C(=O)O)NC2=O)cc1 (H-YC[Phe(4-Me)][Pen]-OH; disulfide 2-4) : is its Ratio no less than 300?
**Result** Yes

**Query** Entry CC1(C)SSC[C@H](NC(=O)[C@@H](N)Cc2ccc(O)cc2)C(=O)N[C@@H](Cc2cccc(F)c2)C(=O)N[C@@H]1C(=O)O (H-YC[Phe(3-F)][Pen]-OH; disulfide 2-4) : is its Ratio no less than 300?
**Result** No

Continuing:
**Query** Entry CC1(C)SSC[C@H](NC(=O)[C@@H](N)Cc2ccc(O)cc2)C(=O)N[C@@H](Cc2ccccc2F)C(=O)N[C@@H]1C(=O)O (H-YC[Phe(2-F)][Pen]-OH; disulfide 2-4) : is its Ratio no less than 300?
**Result** No

**Query** Entry CC1(C)SSC[C@H](NC(=O)[C@@H](N)Cc2ccc(O)cc2)C(=O)N[C@@H](Cc2cccc(O)c2)C(=O)N[C@@H]1C(=O)O (H-YC[mTyr][Pen]-OH; disulfide 2-4) : is its Ratio no less than 300?
**Result** No

**Query** Entry CC1(C)SSC[C@H](NC(=O)[C@@H](N)Cc2ccc(O)cc2)C(=O)N[C@@H](Cc2ccc(Cl)cc2)C(=O)N[C@@H]1C(=O)O (H-YC[Phe(4-Cl)][Pen]-OH; disulfide 2-4) : is its Ratio no less than 300?
**Result** Yes

---

Target: Opioid receptors; mu & delta (Homo sapiens) (UniProt P41143+P35372)
Sequence (P35372 whole entry, looked up): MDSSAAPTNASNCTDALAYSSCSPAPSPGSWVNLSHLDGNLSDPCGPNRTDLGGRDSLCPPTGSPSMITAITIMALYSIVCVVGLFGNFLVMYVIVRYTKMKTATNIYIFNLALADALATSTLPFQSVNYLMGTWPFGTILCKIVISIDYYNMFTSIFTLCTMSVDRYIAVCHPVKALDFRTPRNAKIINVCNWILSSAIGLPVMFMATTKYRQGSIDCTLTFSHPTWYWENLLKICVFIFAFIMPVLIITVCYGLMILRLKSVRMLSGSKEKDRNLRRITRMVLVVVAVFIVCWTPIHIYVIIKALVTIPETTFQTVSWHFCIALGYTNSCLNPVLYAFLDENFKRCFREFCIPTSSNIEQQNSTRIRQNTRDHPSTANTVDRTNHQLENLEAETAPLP
Sequence (P41143 whole entry, looked up): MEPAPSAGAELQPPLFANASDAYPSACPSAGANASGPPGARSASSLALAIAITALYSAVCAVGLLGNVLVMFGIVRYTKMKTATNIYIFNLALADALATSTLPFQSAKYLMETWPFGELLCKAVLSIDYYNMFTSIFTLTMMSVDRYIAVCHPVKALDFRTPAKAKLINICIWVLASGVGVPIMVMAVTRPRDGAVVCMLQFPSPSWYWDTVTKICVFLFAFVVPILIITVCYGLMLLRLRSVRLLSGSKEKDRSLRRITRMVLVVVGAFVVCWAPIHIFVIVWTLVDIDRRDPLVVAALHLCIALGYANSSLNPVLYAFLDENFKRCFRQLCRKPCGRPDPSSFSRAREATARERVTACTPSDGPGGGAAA
Test: Ratio of binding affinity towards mu receptor to delta receptor.
Format: protein assay
Positions of bridges follow the written chain, without caps; N, C: chain ends. Non-standard residues stand in square brackets, D forms with d. Residues, ends and D or L forms follow the SMILES beside them. Phe(4-NO2) = N[C@@H](Cc1ccc([N+](=O)[O-])cc1)C(=O)O; Phe(4-tBu) = CC(C)(C)c1ccc(C[C@H](N)C(=O)O)cc1; Phe(4-F) = N[C@@H](Cc1ccc(F)cc1)C(=O)O; mTyr = N[C@@H](Cc1cccc(O)c1)C(=O)O; Pen = CC(C)(S)[C@H](N)C(=O)O
Readout label: Ratio
Reply: number alone, nothing else.

**Query** Item under review: CC1(C)SSC[C@H](NC(=O)[C@@H](N)Cc2ccc(O)cc2)C(=O)N[C@@H](Cc2ccc(O)cc2)C(=O)N[C@@H]1C(=O)O (H-YCY[Pen]-OH; disulfide 2-4) . Reported Ratio?
**Result** 135

**Query** Item under review: CC1(C)SSC[C@H](NC(=O)[C@@H](N)Cc2ccc(O)cc2)C(=O)N[C@@H](Cc2ccc(F)cc2)C(=O)N[C@@H]1C(=O)O (H-YC[Phe(4-F)][Pen]-OH; disulfide 2-4) . Reported Ratio?
**Result** 146

**Query** Item under review: CC1(C)SSC[C@H](NC(=O)[C@@H](N)Cc2ccc(O)cc2)C(=O)N[C@@H](Cc2cccc(O)c2)C(=O)N[C@@H]1C(=O)O (H-YC[mTyr][Pen]-OH; disulfide 2-4) . Reported Ratio?
**Result** 22.3

**Query** Item under review: CC1(C)SSC[C@H](NC(=O)[C@@H](N)Cc2ccc(O)cc2)C(=O)N[C@@H](Cc2ccc([N+](=O)[O-])cc2)C(=O)N[C@@H]1C(=O)O (H-YC[Phe(4-NO2)][Pen]-OH; disulfide 2-4) . Reported Ratio?
**Result** 82.5

Continuing:
**Query** Item under review: CC(C)(C)c1ccc(C[C@@H]2NC(=O)[C@@H](NC(=O)[C@@H](N)Cc3ccc(O)cc3)CSSC(C)(C)[C@@H](C(=O)O)NC2=O)cc1 (H-YC[Phe(4-tBu)][Pen]-OH; disulfide 2-4) . Reported Ratio?
**Result** 15

---

Target: Mu-type opioid receptor (Cavia porcellus)
Experiment: Compound was tested for the inhibition of [3H]- [D-Ala2, N-MePhe4, Gly5-ol]-enkephalin (DAMGO) binding to opioid receptor mu in guinea pig brain homogenates
Assay type: tissue-based
Positions of bridges follow the written chain, without caps; N, C: chain ends. Non-standard residues stand in square brackets, D forms with d. Residues, ends and D or L forms follow the SMILES beside them. Phe(4-tBu) = CC(C)(C)c1ccc(C[C@H](N)C(=O)O)cc1; Phe(4-Cl) = N[C@@H](Cc1ccc(Cl)cc1)C(=O)O; Phe(3-F) = N[C@@H](Cc1cccc(F)c1)C(=O)O; Phe(4-Me) = Cc1ccc(C[C@H](N)C(=O)O)cc1; Phe(2-F) = N[C@@H](Cc1ccccc1F)C(=O)O; Pen = CC(C)(S)[C@H](N)C(=O)O
# note: exactly 700 nM is not below, so it is n; use y for Ki strictly under it

Solved cases below.
**Query** Hello, I'm reviewing records and need to know if Ki of Cc1ccc(C[C@@H]2NC(=O)[C@@H](NC(=O)[C@@H](N)Cc3ccc(O)cc3)CSSC(C)(C)[C@@H](C(=O)O)NC2=O)cc1 (H-YC[Phe(4-Me)][Pen]-OH; disulfide 2-4) is below 700 nM. Could you check?
**Result** n

**Query** Hello, I'm reviewing records and need to know if Ki of CC1(C)SSC[C@H](NC(=O)[C@@H](N)Cc2ccc(O)cc2)C(=O)N[C@@H](Cc2cccc(F)c2)C(=O)N[C@@H]1C(=O)O (H-YC[Phe(3-F)][Pen]-OH; disulfide 2-4) is below 700 nM. Could you check?
**Result** y

Continuing:
**Query** Hello, I'm reviewing records and need to know if Ki of CC(C)(C)c1ccc(C[C@@H]2NC(=O)[C@@H](NC(=O)[C@@H](N)Cc3ccc(O)cc3)CSSC(C)(C)[C@@H](C(=O)O)NC2=O)cc1 (H-YC[Phe(4-tBu)][Pen]-OH; disulfide 2-4) is below 700 nM. Could you check?
**Result** n

**Query** Hello, I'm reviewing records and need to know if Ki of CC1(C)SSC[C@H](NC(=O)[C@@H](N)Cc2ccc(O)cc2)C(=O)N[C@@H](Cc2ccccc2F)C(=O)N[C@@H]1C(=O)O (H-YC[Phe(2-F)][Pen]-OH; disulfide 2-4) is below 700 nM. Could you check?
**Result** y

**Query** Hello, I'm reviewing records and need to know if Ki of CC1(C)SSC[C@H](NC(=O)[C@@H](N)Cc2ccc(O)cc2)C(=O)N[C@@H](Cc2ccc(Cl)cc2)C(=O)N[C@@H]1C(=O)O (H-YC[Phe(4-Cl)][Pen]-OH; disulfide 2-4) is below 700 nM. Could you check?
**Result** y
